B1: HESX1 (parent)
chain: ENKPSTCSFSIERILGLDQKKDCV

Variants of: B1
Experiment: protein stability index of a GFP-peptide fusion (GPS, HEK-293T) (PSI 1-6); higher = more stable;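 further: lentivirally expressed fusions sorted by FACS into six bins by GFP to DsRed ratio, PSI derived from sequencing read proportions per bin multiplied by bin number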
Settings: c terminus: a fixed tail appended
property-label: protein stability index
Reply: number alone, nothing else.

query_sequence="ENKPSTCQFSIERILGLDQKKDCV [S8Q]" measured_result=3.23

Shifting focus to the variant that follows.
Task: Which protein stability index is reported for this variant? ENKPSTCSFSISRILGLDQKKDCV [E12S]
Result: 2.84

These measurements were taken from the supplement of paper PMC10567573.
